Data provenance: patent US20240287062A1

target: ABL1 (M351T) (Homo sapiens (Human), UniProt P00519, M351T); test: Radioactivity-based ABL kinase assay; conditions: 100 μM 33P-ATP
ATTRIBUTE_MEASURED: pIC50
In textbook form, pIC50 equals minus log to base ten of the concentration in mol/L.

Cc1c(F)cncc1-c1cc2cnc(NC(=O)C3CC3)cc2n(C)c1=O :: 8.82

Can you share its pIC50? I mean this molecule: Cc1c(F)cncc1-c1cc2cnc(NC(=O)[C@@H]3C[C@@H]3F)cc2n(C)c1=O
8.35

====

molecular target: ABL1 (E255V) (Homo sapiens (Human), UniProt P00519, E255V); experiment: Radioactivity-based ABL kinase assay; conditions: 100 μM 33P-ATP
Overview of recorded IC50 for various compounds
Numbers only here, please. The scale is nM.

Cc1c(F)cncc1-c1cc2cnc(NC(=O)[C@@H]3C[C@@H]3F)cc2n(C)c1=O [Compound 28] :: 1.4

Then there is this compound:
Can you share its IC50? I mean this compound: Cc1c(F)cncc1-c1cc2cnc(NC(=O)C3CC3)cc2n(C)c1=O [Compound 2]
0.61
